System: Mus musculus
TEST NAME: Oral bioavailability in CD1 mouse assessed as (2R,3R,4R,5R,6R)-5-acetamido-4-amino-2,3-difluoro-6-((1R,2R)-1,2,3-trihydroxypropyl)tetrahydro-2H-pyran-2-carboxylic acid at 30 mg/kg
Type: ADME, organism-based
APPLIED CONDITIONS: in vivo
METRIC NAME: F (%)

Below, 3 molecules whose answers are already recorded.
COMPOUND SMILES: COC(=O)[C@]1(F)O[C@@H]([C@H](O)[C@H](O)CO)[C@H](NC(C)=O)[C@@H](N)[C@H]1F
MEASURED TARGET: Mus musculus
RESULT: 2.2
//
COMPOUND SMILES: CCCCCOC(=O)[C@]1(F)O[C@@H]([C@H](O)[C@H](O)CO)[C@H](NC(C)=O)[C@@H](N)[C@H]1F
MEASURED TARGET: Mus musculus
RESULT: 5.5
//
COMPOUND SMILES: CC(=O)N[C@@H]1[C@@H](N)[C@@H](F)[C@](F)(C(=O)OCC2CCCCC2)O[C@H]1[C@H](O)[C@H](O)CO
MEASURED TARGET: Mus musculus
RESULT: 9.3

(P) COC(=O)[C@]1(F)O[C@@H]([C@H](O)[C@H](O)COC(=O)OCC(C)C)[C@H](NC(C)=O)[C@@H](N)[C@H]1F
(Q) CCCCCCCCOC(=O)OC[C@@H](O)[C@@H](O)[C@@H]1O[C@@](F)(C(=O)OC)[C@H](F)[C@H](N)[C@H]1NC(C)=O
(R) CC(=O)N[C@@H]1[C@@H](N)[C@@H](F)[C@](F)(C(=O)OC(C)C)O[C@H]1[C@H](O)[C@H](O)CO
Task: Order field: F | Direction: descending (largest first) Note for the reader: the ranking is given by listing the labels in the order requested.
Result: Q, P, R
(Q: 6.7%, P: 3.9%, R: 0.9%)

* * *

Tested on: Mus musculus
TEST NAME: Total plasma concentration in CD1 mouse assessed as (2R,3R,4R,5R,6R)-5-acetamido-4-amino-2,3-difluoro-6-((1R,2R)-1,2,3-trihydroxypropyl)tetrahydro-2H-pyran-2-carboxylic acid at 30 mg/kg, po measured at 20 mins by reversed-phase UPLC/MS analysis
Format: ADME, organism-based
Parameters: dose 30 mg/kg, route oral
APPLIED CONDITIONS: in vivo
METRIC NAME: concentration (µM)

COMPOUND SMILES: COC(=O)[C@]1(F)O[C@@H]([C@H](O)[C@H](O)COP(=O)(OC)OC)[C@H](NC(C)=O)[C@@H](N)[C@H]1F
MEASURED TARGET: Mus musculus
UNIT ANNOTATION: µM
concentration: 0.96

(a) COC(=O)[C@]1(F)O[C@@H]([C@H](O)[C@H](O)COC(=O)OCC(C)C)[C@H](NC(C)=O)[C@@H](N)[C@H]1F
(b) COC(=O)[C@]1(F)O[C@@H]([C@H](O)[C@H](O)CO)[C@H](NC(C)=O)[C@@H](N)[C@H]1F
(c) CC(=O)N[C@@H]1[C@@H](N)[C@@H](F)[C@](F)(C(=O)NCc2ccccc2F)O[C@H]1[C@H](O)[C@H](O)CO
Task: Put the molecules in ascending order of concentration. Note for the reader: the ranking is given by listing the labels in the order requested.
Result: c, b, a
(c: 0.66 µM, b: 6.44 µM, a: 9.93 µM)

* * *

Tested on: Mus musculus
TEST NAME: AUC in CD1 mouse assessed as (2R,3R,4R,5R,6R)-5-acetamido-4-amino-2,3-difluoro-6-((1R,2R)-1,2,3-trihydroxypropyl)tetrahydro-2H-pyran-2-carboxylic acid at 30 mg/kg, po
Assay type: ADME, organism-based, Plasma
Parameters: dose 30 mg/kg, route oral
APPLIED CONDITIONS: in vivo
METRIC NAME: AUC (µmol·min)

Below, 4 compounds whose answers are already recorded.
COMPOUND SMILES: CC(=O)N[C@@H]1[C@@H](N)[C@@H](F)[C@](F)(C(=O)OC(C)C)O[C@H]1[C@H](O)[C@H](O)CO
AUC, µmol·min: 78
//
COMPOUND SMILES: CCCCCCCCOC(=O)OC[C@@H](O)[C@@H](O)[C@@H]1O[C@@](F)(C(=O)OC)[C@H](F)[C@H](N)[C@H]1NC(C)=O
AUC, µmol·min: 452
//
COMPOUND SMILES: COC(=O)[C@]1(F)O[C@@H]([C@H](O)[C@H](O)CO)[C@H](NC(C)=O)[C@@H](N)[C@H]1F
AUC, µmol·min: 219
//
COMPOUND SMILES: CC(=O)N[C@@H]1[C@@H](N)[C@@H](F)[C@](F)(C(=O)OCC2CCCCC2)O[C@H]1[C@H](O)[C@H](O)CO
AUC, µmol·min: 736

(a) CCCCCOC(=O)[C@]1(F)O[C@@H]([C@H](O)[C@H](O)CO)[C@H](NC(C)=O)[C@@H](N)[C@H]1F
(b) COC(=O)[C@]1(F)O[C@@H]([C@H](O)[C@H](O)COC(=O)OCC(C)C)[C@H](NC(C)=O)[C@@H](N)[C@H]1F
Task: I'm curious whether a or b has the smaller AUC number. Which is it? Give the label of your selection.
Result: b

* * *

Tested on: Mus musculus
TEST NAME: Total plasma concentration in CD1 mouse assessed as (2R,3R,4R,5R,6R)-5-acetamido-4-amino-2,3-difluoro-6-((1R,2R)-1,2,3-trihydroxypropyl)tetrahydro-2H-pyran-2-carboxylic acid at 30 mg/kg, po measured at 20 mins by reversed-phase UPLC/MS analysis
Type: ADME, organism-based
Set-up: dose 30 mg/kg, route oral
APPLIED CONDITIONS: in vivo
METRIC NAME: concentration (µM)

(I) COC(=O)OC[C@@H](O)[C@@H](O)[C@@H]1O[C@@](F)(C(=O)OC)[C@H](F)[C@H](N)[C@H]1NC(C)=O
(II) CCOC(=O)[C@]1(F)O[C@@H]([C@H](O)[C@H](O)CO)[C@H](NC(C)=O)[C@@H](N)[C@H]1F
(III) CC(=O)N[C@@H]1[C@@H](N)[C@@H](F)[C@](F)(C(=O)OCCCOC(=O)c2ccc3ccccc3c2O)O[C@H]1[C@H](O)[C@H](O)CO
Task: Task for the reader: place the compounds above in descending order according to recorded concentration. Note for the reader: the ranking is given by listing the labels in the order requested.
Result: II, III, I
(II: 2.07 µM, III: 0.25 µM, I: 0.09 µM)

* * *

TEST NAME: Stability in simulated gastric fluid at 10 uM at pH 1 measured at 15 mins
Assay type: ADME
APPLIED CONDITIONS: read-out: Stability
METRIC NAME: remaining at 0.25 h, 10 µM (%)

COMPOUND SMILES: COC(=O)[C@]1(F)O[C@@H]([C@H](O)[C@H](O)COC(=O)OCC(C)C)[C@H](NC(C)=O)[C@@H](N)[C@H]1F
UNIT ANNOTATION: %
remaining at 0.25 h, 10 µM: 90

COMPOUND SMILES: CCCCCOC(=O)[C@]1(F)O[C@@H]([C@H](O)[C@H](O)CO)[C@H](NC(C)=O)[C@@H](N)[C@H]1F
UNIT ANNOTATION: %
remaining at 0.25 h, 10 µM: 99

COMPOUND SMILES: CC(=O)N[C@@H]1[C@@H](N)[C@@H](F)[C@](F)(C(=O)OCC2CCCCC2)O[C@H]1[C@H](O)[C@H](O)CO
UNIT ANNOTATION: %
remaining at 0.25 h, 10 µM: 100

* * *

Tested on: Mus musculus
TEST NAME: Total plasma concentration in CD1 mouse assessed as (2R,3R,4R,5R,6R)-5-acetamido-4-amino-2,3-difluoro-6-((1R,2R)-1,2,3-trihydroxypropyl)tetrahydro-2H-pyran-2-carboxylic acid at 30 mg/kg, po measured at 60 mins by reversed-phase UPLC/MS analysis
Assay type: ADME, organism-based
Parameters: dose 30 mg/kg, route oral
APPLIED CONDITIONS: in vivo, 1 h
METRIC NAME: concentration (µM)

COMPOUND SMILES: COC(=O)[C@]1(F)O[C@@H]([C@H](O)[C@H]2COC(C)(C)O2)[C@H](NC(C)=O)[C@@H](N)[C@H]1F
METRIC NAME: concentration
RESULT: 4.86
//
COMPOUND SMILES: CCCCCOC(=O)[C@]1(F)O[C@@H]([C@H](O)[C@H](O)CO)[C@H](NC(C)=O)[C@@H](N)[C@H]1F
METRIC NAME: concentration
RESULT: 3.5
//
COMPOUND SMILES: COC(=O)[C@]1(F)O[C@@H]([C@H](O)[C@H]2COC3(CCCCC3)O2)[C@H](NC(C)=O)[C@@H](N)[C@H]1F
METRIC NAME: concentration
RESULT: 0.39
//
COMPOUND SMILES: CC(=O)N[C@@H]1[C@@H](N)[C@@H](F)[C@](F)(C(=O)OCCCCCOC(=O)C(C)(C)C)O[C@H]1[C@H](O)[C@H](O)CO
METRIC NAME: concentration
RESULT: 3.77
//
COMPOUND SMILES: CC(=O)N[C@@H]1[C@@H](N)[C@@H](F)[C@](F)(C(=O)OC(C)C)O[C@H]1[C@H](O)[C@H](O)CO
METRIC NAME: concentration
RESULT: 13

(A) CCOP(=O)(OCC)OC[C@@H](O)[C@@H](O)[C@@H]1O[C@@](F)(C(=O)OC)[C@H](F)[C@H](N)[C@H]1NC(C)=O
(B) CC(=O)N[C@@H]1[C@@H](N)[C@@H](F)[C@](F)(C(=O)OCCCOC(=O)c2ccc3ccccc3c2O)O[C@H]1[C@H](O)[C@H](O)CO
Task: // max by concentration over [ A , B ] Give the label of your selection.
Result: A
(A: 2.55 µM, B: 0.3 µM)
